Molecular target: T1, human 5T4-His protein (human, UniProt Q13641 32-355)
T1 construct: also called recombinant 5T4 protein (human 5T4-his tag); human 5T4 protein; not shown: His tag
T1 sequence (looked up): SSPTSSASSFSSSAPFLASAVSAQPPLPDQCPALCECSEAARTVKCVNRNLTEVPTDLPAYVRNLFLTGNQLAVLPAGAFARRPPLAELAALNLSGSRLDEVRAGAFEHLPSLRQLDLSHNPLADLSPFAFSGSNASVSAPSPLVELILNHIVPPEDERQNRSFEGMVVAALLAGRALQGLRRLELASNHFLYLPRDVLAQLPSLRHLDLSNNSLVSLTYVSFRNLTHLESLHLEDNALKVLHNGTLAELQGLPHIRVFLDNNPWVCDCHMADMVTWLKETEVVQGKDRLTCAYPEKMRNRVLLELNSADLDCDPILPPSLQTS
Assay: SPR Biacore, Protein A capture, 50 nM 5T4-His
metric: koff (s⁻¹)
Note: unit s⁻¹ is implicit; provide only the numeric part.

Q: Request the reported koff associated with Hu159D5-11 (antibody, V domains shown, humanized) VH: EVQLVESGGGVVQPGRSLRLSCAASGFTFSNFGMHWVRQAPGKGLEWVAYISSGSSTFYYADSVKGRFTISRDNSKNTLYLQMNSLRAEDTAVYFCARSPAYYRYGLDYWGQGTTVTVSS VL: DIVMTQSPDSLAVSLGERATINCRASQSVSSSTFSYMHWYQQKPGQPPKLLIKSSSNLESGVPDRFSGSGSGTDFTLTISSLQAEDVAVYYCQHSWEIPYTFGGGTKVEIK
A: 0.000273

Q: Similarly, Hu159D5-7 (antibody, V domains shown, humanized) VH: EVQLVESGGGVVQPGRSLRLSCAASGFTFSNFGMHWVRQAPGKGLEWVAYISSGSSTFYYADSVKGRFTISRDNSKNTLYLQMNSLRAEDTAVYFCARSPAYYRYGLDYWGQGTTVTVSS VL: DIVMTQTPLSLSVTPGQPASISCRASQSVSSSTFSYMHWYQQKPGQPPQLLIYSSSNLESGVPDRFSGSGSGTDFTLKISRVEAEDVGVYYCQHSWEIPYTFGGGTKVEIK ?
A: 0.000253
